Data origin, for the record: a melting point compilation (Tetko et al.; mined from patent text by program, amines drawn as free bases though some values may be those of a salt)

Quick reference: melting point of the listed items.

1. Cc1nnc2n1-c1ccccc1C(c1ccccc1Cl)=NC2: 212 to 213 °C
2. Cn1ncc2c(C(F)F)cc(-c3ccc(N)c(C#N)c3)nc21: 251 °C

The measured melting point associated with "COCCCNC(=O)C1CCN(C(=O)c2[nH]c(C)c(-c3nc4ccc(C(=O)c5ccccc5)cc4[nH]3)c2C)CC1" reads 289 to 291 °C

The measured melting point associated with COc1ccc(C(=O)C2=C(O)C(=O)N(c3nnc(C)s3)C2c2ccc(O)cc2)cc1 (stereo not given) reads 251 °C

The measured melting point associated with "CNc1nc(N)nc2cc(-c3ccccc3S(=O)(=O)NC)ccc12" reads 316 to 317 °C

The measured melting point associated with "COCCOc1ccc(/C=C/C(=O)NS(=O)(=O)c2ccc(F)cc2)c(Oc2ncc(C(F)(F)F)cc2Cl)c1" reads 183 to 184 °C

====

Quick reference: melting point of the listed items.

1. COC(=O)c1ccc(Sc2cccc(OCCCCl)c2)cc1: 47 to 49 °C
2. CCCCCc1c(C(C)C)nc(C(C)C)c(CO)c1-c1ccccc1C: 81 to 83 °C
3. O=C(O)c1ccc(C(=O)N2Cc3ccccc3Cc3ccccc32)cc1: 220 to 225 °C
4. NC(=O)c1cccc2[nH]c(-c3ccc(O)cc3)nc12: 266 to 267 °C
5. Cc1cc(C)c(Oc2nc(C)nc(Cl)c2Cl)c(C)c1: 68 to 70 °C
6. CCc1nc2c(N)nc3cc(OCC(=O)N4CCOCC4)ccc3c2n1CC1CCOCC1: 245 to 247 °C
7. NC(=O)N1CC(Sc2ccc(Cl)cc2)C1: 210 to 212 °C
8. COc1ccc(N2CCN(c3ccc(-n4cnn(C(C)C(F)(F)F)c4=O)cc3)CC2)cc1 (stereo unspecified): 199 °C

The measured melting point associated with "CCCCCNC(=O)n1nc(Oc2ncc(C(F)(F)F)cc2Cl)c(Cl)c1C" reads 76 to 78 °C

The measured melting point associated with "O=c1c2ccccc2[nH]n1C(c1ccccc1)c1ccccc1" reads 179 to 181 °C

The measured melting point associated with "COCCc1nnc(NC(=O)C2c3ccccc3Oc3ccccc32)o1" reads 105 to 106 °C

The measured melting point associated with CCCCCNCCC1CCCC1CCCCCCC(=O)O (stereo unspecified) reads 107 to 108 °C

The measured melting point associated with "CS(=O)(=O)N1CCN(c2nc(N)nc(-c3cc(Cl)ccc3Cl)n2)CC1" reads 184 to 186 °C

The measured melting point associated with "CCOC(=O)C=Cc1ccc(C=CC(=O)OCC)c2ccccc12" reads 90 to 91 °C

====

Quick reference: melting point of the listed items.

Worked cases, melting point given:
1) O=c1[nH]c2cccc(Cl)c2c(=O)n1CCCN1CC=C(c2ccc(Cl)cc2)CC1: 190 to 194 °C
2) COC(OC)c1cc(C)nc(NC(=O)NS(=O)(=O)c2ccccc2Cl)n1: 150 to 153 °C
3) CCOC(=O)C1CCC(c2ccc(Cl)cc2)n2c(=O)n(CCCl)c(=O)n21 (centres undefined): 111 to 112 °C

The measured melting point associated with "CCN(CC)C(=O)c1cc(-c2ccccc2)c2sccc2c1" reads 78 °C

The measured melting point associated with "Cc1ccc(C(=O)OCc2c3ccccc3cc3ccccc23)cc1" reads 124 °C

The measured melting point associated with COC(C)COC1C(n2cc(C)c(=O)[nH]c2=O)OC(COCc2ccccc2)(COS(=O)(=O)c2ccc(C)cc2)C1(CCO)OCc1ccccc1 (centres undefined) reads 90 to 92 °C

The measured melting point associated with "CCOC(=O)c1nc2c(=O)[nH]c3cc(C(F)(F)F)ccc3n2c1CNCc1ccccc1" reads > 250 °C

The measured melting point associated with "O=C(O)c1cnc(Nc2ccccc2F)[nH]c1=O" reads 300 °C

The measured melting point associated with "CCc1nn(C2CCCC2)c2cc(C(=O)NCCC(=O)O)ccc12" reads 151 to 153 °C
